Provenance of the data: patent US8440694B2

molecular target: h-5-HT6 receptor (Homo sapiens)
Sequence (P50406 whole entry): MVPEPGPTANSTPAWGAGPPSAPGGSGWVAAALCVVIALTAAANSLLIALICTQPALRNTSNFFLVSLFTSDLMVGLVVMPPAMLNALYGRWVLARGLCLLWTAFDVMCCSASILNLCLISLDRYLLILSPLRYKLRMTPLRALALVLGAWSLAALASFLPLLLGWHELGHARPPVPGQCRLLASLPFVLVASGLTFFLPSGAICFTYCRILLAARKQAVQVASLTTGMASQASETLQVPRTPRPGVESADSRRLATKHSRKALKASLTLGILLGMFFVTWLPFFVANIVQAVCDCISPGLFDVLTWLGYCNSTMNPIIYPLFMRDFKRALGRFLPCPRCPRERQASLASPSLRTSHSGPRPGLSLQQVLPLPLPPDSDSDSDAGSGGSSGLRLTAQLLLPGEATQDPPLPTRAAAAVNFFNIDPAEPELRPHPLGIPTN
pKi: −log10 of the molar value. Structures can show the parent of a compound that is named as a salt.
Entries and their measured pKi follow.
readout.name: pKi

                                   molecule  result
0  O=S(=O)(c1ccccc1)c1cnc2c(N3CCCC4NCCCC43)cccc2c1 (stereo not shown) [Example 10]  > 6.60
1  O=S(=O)(c1cccc(N2CC3CNCC3C2)c1)c1cnc2c(N3CC4CNCC4C3)cccc2c1 (stereo not shown) [Example 18]  > 8.00
2  O=S(=O)(c1cccc(F)c1)c1cnc2c(N3CC[C@H]4CNC[C@H]43)cccc2c1 [Example 26, hydrochloride]  > 8.00
3  O=S(=O)(c1ccccc1)c1cnc2c(N3CCC4NC5CCCCC5C4C3)cccc2c1 (stereo not shown) [Example 42]  > 6.60
4  O=S(=O)(c1cccc(C(F)(F)F)c1)c1cnc2c(N3CC4CCNCC4C3)cccc2c1 (stereo not shown) [Example 44]  > 8.00
5  O=S(=O)(c1ccccc1)c1cnc2c(N3CC4CN(Cc5ccccc5)CC4C3)cccc2c1 (stereo not shown) [Example 40]  > 8.00
6  O=S(=O)(c1ccccc1)c1cnc2c(N3CC4CCNCC4C3)cccc2c1 (stereo not shown) [Example 4]  > 8.00
7  O=S(=O)(c1ccc(F)cc1)c1cnc2c(N3CC4CCNC4C3)cccc2c1 (stereo not shown) [Example 39]  > 8.00
8  O=S(=O)(c1cccc(F)c1)c1cnc2c(N3C[C@H]4CN[C@H]4C3)cccc2c1 [Example 28, hydrochloride]  > 8.00
9  O=S(=O)(c1cccc(F)c1)c1cnc2c(N3C[C@H]4CNC[C@H]4C3)cccc2c1 [Example 30, hydrochloride]  > 8.00
